Cited source: paper PMC9482650

- system-name: AHNAK1, Q09666
- Sequence (Q09666 4-100): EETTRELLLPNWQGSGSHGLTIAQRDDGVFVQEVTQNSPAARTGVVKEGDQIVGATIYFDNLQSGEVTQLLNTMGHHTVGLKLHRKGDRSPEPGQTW
- experimental-details: holdup assay
- Set-up: key: below the threshold = too weak to quantify, mostly under pKd 3.1 to 4
- test-conditions: plain residues with an end cap or a label only (N-terminal biotin on a linker: ahx)
metric-name: pKd

Solved entries (count: 6):
{"binder": "TQKFRASTAL [FRMPD1, Q5SYB0]", "metric-name": "pKd", "recorded-value": "below the threshold"}
{"binder": "HTHSYIETHV [CNKSR2, Q8WXI2]", "metric-name": "pKd", "recorded-value": "below the threshold"}
{"binder": "TESNLQTSSC [CGN, Q9P2M7]", "metric-name": "pKd", "recorded-value": "below the threshold"}
{"binder": "QNTDDVQTSF [ACE2, Q9BYF1]", "metric-name": "pKd", "recorded-value": "below the threshold"}
{"binder": "QPRTWLQSPV [RTKN, Q9BST9]", "metric-name": "pKd", "recorded-value": "below the threshold"}
{"binder": "APSRKLNTEI [TIAM1, Q13009]", "metric-name": "pKd", "recorded-value": "below the threshold"}

Read off the recorded pKd for QDEKVKESYV [ABCA1, O95477]
below the threshold

Read off the recorded pKd for TEAKLTETNA [MYO18A, Q92614]
below the threshold

For the binder EKQAKGDTEF [CACYBP, Q9HB71] , give its reported pKd.
below the threshold
